We begin with a simple list: items and their reported abundance fitness.
B1: Far upstream element-binding protein 3, residues 75 to 150; numbered along this chain, Q96I24 (parent)
chain: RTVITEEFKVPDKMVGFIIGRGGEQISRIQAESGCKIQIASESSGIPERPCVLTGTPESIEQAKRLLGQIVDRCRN

Variants of: B1
run.description: abundance fitness (aPCA) (normalised: wild type 0, dead -1); higher = more abundant; growth selection in yeast, the domain comes from the species named
condition.description: Homo sapiens

item.sequence: RTVITEEFKVPDKMVGFIIGRGGEQISRIQAESGCKIQIASESSGIPERPCVLTGTPESIEQAKRLLGQIVDECRN [R73E]
abundance fitness: 0.043
--
item.sequence: RTVITEEFKVPDKMVGFIWGRGGEQISRIQAESGCKIQIASESSGIPERPCVLTGTPESIEQAKRLLGQIVDRCRN [I19W]
abundance fitness: -0.096
--
item.sequence: RTVITEEFKVPDKMVGFIIGRGGEQISRIQAESGCKIQIASESSGIPERPLVLTGTPESIEQAKRLLGQIVDRCRN [C51L]
abundance fitness: -0.062
--
item.sequence: RTVITEIFKVPDKMVGFIIGRGGEQISRIQAESGCKIQIASESSGIPERPCVLTGTPESIEQAKRLLGQIVDRCRN [E7I]
abundance fitness: -0.048
--
item.sequence: RTVITEEFKVPDKMVGFIIGRWGEQISRIQAESGCKIQIASESSGIPERPCVLTGTPESIEQAKRLLGQIVDRCRN [G22W]
abundance fitness: -0.149
--
item.sequence: RTVITEEFKVPDKMVGFIIGRGGEQISRIQAESGCKIQIASESSGIPERPCVLTGCPESIEQAKRLLGQIVDRCRN [T56C]
abundance fitness: -0.097
--
item.sequence: RTVITEEFKVPDKMVGFIIGRGGEQISRIQAESGCKIQIASESSGIPERPCALTGTPESIEQAKRLLGQIVDRCRN [V52A]
abundance fitness: -0.029
--
item.sequence: RTVITEEFKVPDKMVGFIIGRGGEQISRIQAERGCKIQIASESSGIPERPCVLTGTPESIEQAKRLLGQIVDRCRN [S33R]
abundance fitness: -0.827
--
item.sequence: RTVITEEFKVPDKMVGFIIGRGGEQISRIQAESGCKIQIASESNGIPERPCVLTGTPESIEQAKRLLGQIVDRCRN [S44N]
abundance fitness: -0.053
--
item.sequence: RTVITEEFKVPDKMVGFIIGRGGEQISRIQAESGCKIQIASESSGIPERPCVLTGTPESIEQAKRLLGQIVDRCRY [N76Y]
abundance fitness: -0.027
--
item.sequence: RTVITEEFKVPDKMVGFIIGRGGEQISRIQAESGCKIFIASESSGIPERPCVLTGTPESIEQAKRLLGQIVDRCRN [Q38F]
abundance fitness: -0.1
--
item.sequence: NTVITEEFKVPDKMVGFIIGRGGEQISRIQAESGCKIQIASESSGIPERPCVLTGTPESIEQAKRLLGQIVDRCRN [R1N]
abundance fitness: 0.063
--
item.sequence: RTVITEEFKVPDKMVGFIIGRGGEQISRIQAESGCKIQIASESSGIPERPCVLYGTPESIEQAKRLLGQIVDRCRN [T54Y]
abundance fitness: -0.102
--
item.sequence: RTVITEEFQVPDKMVGFIIGRGGEQISRIQAESGCKIQIASESSGIPERPCVLTGTPESIEQAKRLLGQIVDRCRN [K9Q]
abundance fitness: -0.007
--
item.sequence: RKVITEEFKVPDKMVGFIIGRGGEQISRIQAESGCKIQIASESSGIPERPCVLTGTPESIEQAKRLLGQIVDRCRN [T2K]
abundance fitness: 0
--
item.sequence: RTVITEEFKVPDKMVGFIIGRGGEQISRIQAESGCKIQIASESSGIPETPCVLTGTPESIEQAKRLLGQIVDRCRN [R49T]
abundance fitness: -0.044
--
item.sequence: RTVITEEFKVPDKMVGFIIGRFGEQISRIQAESGCKIQIASESSGIPERPCVLTGTPESIEQAKRLLGQIVDRCRN [G22F]
abundance fitness: -0.1
--
item.sequence: RTVITEEFKVPDKMVFFIIGRGGEQISRIQAESGCKIQIASESSGIPERPCVLTGTPESIEQAKRLLGQIVDRCRN [G16F]
abundance fitness: -0.223
--
item.sequence: RTVITEEFKVPDKMVGFIIGRGGEQISRIQAESGCKIQIASESSGCPERPCVLTGTPESIEQAKRLLGQIVDRCRN [I46C]
abundance fitness: 0.023
--
item.sequence: RTVITEEFKVPDKMVGFIIGRGGEQISRIQAESGCKIQIASESSGIPERPCVLTGTPESIEQAKRLLGGIVDRCRN [Q69G]
abundance fitness: -0.012
--
item.sequence: RTVITEEFKVPDKMVGFIIGRGGEQISRIQAESGCKIQIASESSGIPERPCVLTGTPESIEQAKRLLGQIVDRCDN [R75D]
abundance fitness: -0.082
--
item.sequence: RTVITEEFKVPDKMVGFIIGRGGEQISRIQAESDCKIQIASESSGIPERPCVLTGTPESIEQAKRLLGQIVDRCRN [G34D]
abundance fitness: -0.073
--
item.sequence: RTVITEEFKVPDKMVGFIIGRGGEQISRIQAESGCKIQIASESSGIPERPCYLTGTPESIEQAKRLLGQIVDRCRN [V52Y]
abundance fitness: -0.115
--
item.sequence: RTVITEEFKVPDKMVGFIIGRGGEQISRIQAESGCKIQIASESSGIPERPRVLTGTPESIEQAKRLLGQIVDRCRN [C51R]
abundance fitness: -0.926
--
item.sequence: RTVITEEFKVPDKMVGFIIGRGGEQISRIQAESGCKIQIASESSGIPEVPCVLTGTPESIEQAKRLLGQIVDRCRN [R49V]
abundance fitness: -0.052
--
item.sequence: RTVITEEFKVPDKMVGFIIGRGGEQISRIQAESGCKIQIASESSGIPERPCVLTGTPESIEQAKRLLGQCVDRCRN [I70C]
abundance fitness: -0.023
--
item.sequence: RTVITEEFKVPDKMVGFIIGRGGEQISRIQAESGCKIQIASESSGIPERPCVLTGTPESIWQAKRLLGQIVDRCRN [E61W]
abundance fitness: -0.111
--
item.sequence: RTVITEEFKVPDKMVGFNIGRGGEQISRIQAESGCKIQIASESSGIPERPCVLTGTPESIEQAKRLLGQIVDRCRN [I18N]
abundance fitness: -0.295
--
item.sequence: RTVITEEFKVMDKMVGFIIGRGGEQISRIQAESGCKIQIASESSGIPERPCVLTGTPESIEQAKRLLGQIVDRCRN [P11M]
abundance fitness: -0.259
--
item.sequence: RTVITEEFKVPDKMVGFIIGRGGEQISRIQAEEGCKIQIASESSGIPERPCVLTGTPESIEQAKRLLGQIVDRCRN [S33E]
abundance fitness: -0.641
--
item.sequence: RTVITEEFKVPDKMVGFIIGRGGEQISRIQAESGCKIQIASESSGIPERPCVLTGTPESIEQACRLLGQIVDRCRN [K64C]
abundance fitness: -0.453
--
item.sequence: RTVITEEFKVPDKMVGFIIGRGGEQISRIQAESGCKIQIASESSGIPERPCVLTGTPESIEQAKRLLGQIVDMCRN [R73M]
abundance fitness: -0.048
--
item.sequence: RTYITEEFKVPDKMVGFIIGRGGEQISRIQAESGCKIQIASESSGIPERPCVLTGTPESIEQAKRLLGQIVDRCRN [V3Y]
abundance fitness: -0.053
--
item.sequence: RTVITEEFKVPDKMVGFIIGRGGEQISEIQAESGCKIQIASESSGIPERPCVLTGTPESIEQAKRLLGQIVDRCRN [R28E]
abundance fitness: -0.079
--
item.sequence: RTVITEEFKVPDKMVGFIIGRGGEQISQIQAESGCKIQIASESSGIPERPCVLTGTPESIEQAKRLLGQIVDRCRN [R28Q]
abundance fitness: -0.02
--
item.sequence: RTVITEEFKVPDKMVGFIIGRGGEQISRIQAESGGKIQIASESSGIPERPCVLTGTPESIEQAKRLLGQIVDRCRN [C35G]
abundance fitness: -0.663
--
item.sequence: RTVITEEFKVPDKMVGSIIGRGGEQISRIQAESGCKIQIASESSGIPERPCVLTGTPESIEQAKRLLGQIVDRCRN [F17S]
abundance fitness: -0.034
--
item.sequence: RTVITEEFKVPDKMVGFIIGRGGEQISRIQAESGCPIQIASESSGIPERPCVLTGTPESIEQAKRLLGQIVDRCRN [K36P]
abundance fitness: -0.811
--
item.sequence: RTIITEEFKVPDKMVGFIIGRGGEQISRIQAESGCKIQIASESSGIPERPCVLTGTPESIEQAKRLLGQIVDRCRN [V3I]
abundance fitness: 0.044
--
item.sequence: RTVITEEFKVPDKMVGFIIGRGGEQISRIQAESGCKIQIASESSIIPERPCVLTGTPESIEQAKRLLGQIVDRCRN [G45I]
abundance fitness: -0.158
--
item.sequence: RTVIEEEFKVPDKMVGFIIGRGGEQISRIQAESGCKIQIASESSGIPERPCVLTGTPESIEQAKRLLGQIVDRCRN [T5E]
abundance fitness: -0.043
--
item.sequence: LTVITEEFKVPDKMVGFIIGRGGEQISRIQAESGCKIQIASESSGIPERPCVLTGTPESIEQAKRLLGQIVDRCRN [R1L]
abundance fitness: -0.079
--
item.sequence: RTVITEEFKVPDKMVGFIIGRGGEQISRIQAESGCKIQIASESSGIPERPCVLTGTPESIEQFKRLLGQIVDRCRN [A63F]
abundance fitness: -0.427
--
item.sequence: RTVITEEFKVPDKMVGFIIGRGGEQISRIQAESGCKIQIASESSEIPERPCVLTGTPESIEQAKRLLGQIVDRCRN [G45E]
abundance fitness: -0.052
--
item.sequence: RTVWTEEFKVPDKMVGFIIGRGGEQISRIQAESGCKIQIASESSGIPERPCVLTGTPESIEQAKRLLGQIVDRCRN [I4W]
abundance fitness: -0.125
--
item.sequence: RTVITEEFKVPDKMVGFIIGFGGEQISRIQAESGCKIQIASESSGIPERPCVLTGTPESIEQAKRLLGQIVDRCRN [R21F]
abundance fitness: -0.147
